- Tested System: T1, MERS spike extracellular domain (Middle East respiratory syndrome …, UniProt K9N5Q8 18-1296)
- T1 construct: extracellular domain
- T1 sequence (K9N5Q8 18-1296): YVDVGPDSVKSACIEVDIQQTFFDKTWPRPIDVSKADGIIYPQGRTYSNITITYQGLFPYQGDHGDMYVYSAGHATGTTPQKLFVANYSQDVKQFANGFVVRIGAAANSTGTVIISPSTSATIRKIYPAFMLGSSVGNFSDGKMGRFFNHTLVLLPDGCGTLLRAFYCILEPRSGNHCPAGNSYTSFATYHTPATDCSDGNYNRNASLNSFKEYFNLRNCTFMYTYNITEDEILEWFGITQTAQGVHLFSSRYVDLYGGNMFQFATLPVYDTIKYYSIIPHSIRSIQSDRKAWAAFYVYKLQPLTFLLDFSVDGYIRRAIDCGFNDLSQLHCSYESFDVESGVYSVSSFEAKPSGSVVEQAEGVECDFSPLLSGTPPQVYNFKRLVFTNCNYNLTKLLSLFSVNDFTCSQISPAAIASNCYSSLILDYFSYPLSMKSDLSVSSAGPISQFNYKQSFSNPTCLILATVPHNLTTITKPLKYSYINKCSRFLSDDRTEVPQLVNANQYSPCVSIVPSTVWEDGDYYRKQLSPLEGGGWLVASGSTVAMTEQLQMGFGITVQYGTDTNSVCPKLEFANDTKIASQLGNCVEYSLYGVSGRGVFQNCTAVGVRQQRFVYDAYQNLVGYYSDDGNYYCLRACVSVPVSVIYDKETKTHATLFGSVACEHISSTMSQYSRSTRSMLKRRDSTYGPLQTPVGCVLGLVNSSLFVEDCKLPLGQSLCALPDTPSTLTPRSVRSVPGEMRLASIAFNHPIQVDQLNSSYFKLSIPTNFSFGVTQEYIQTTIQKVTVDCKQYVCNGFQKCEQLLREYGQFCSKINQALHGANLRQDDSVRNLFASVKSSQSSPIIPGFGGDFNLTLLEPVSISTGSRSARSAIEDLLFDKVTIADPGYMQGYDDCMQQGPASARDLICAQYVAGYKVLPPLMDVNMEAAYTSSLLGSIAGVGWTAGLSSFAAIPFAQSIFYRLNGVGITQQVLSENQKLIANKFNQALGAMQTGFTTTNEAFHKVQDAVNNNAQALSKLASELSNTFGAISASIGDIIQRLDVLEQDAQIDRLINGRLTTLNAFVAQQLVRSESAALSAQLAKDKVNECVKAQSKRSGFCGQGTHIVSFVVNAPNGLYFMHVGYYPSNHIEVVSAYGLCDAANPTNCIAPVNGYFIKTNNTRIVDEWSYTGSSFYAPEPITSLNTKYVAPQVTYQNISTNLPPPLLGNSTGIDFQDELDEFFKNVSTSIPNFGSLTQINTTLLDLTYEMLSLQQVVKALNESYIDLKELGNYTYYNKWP
- Procedure Details: ELISA
Measure Name: binding result

>>> recorded_value("FN 8C (antibody, V domains shown) VH: QVQLVESGGGVVQPGRSLRLSCAASGFTFSSYGMHWVRQAPGKGLEWVAVISYDGSNKYYADTVKGRFTISRDNSKNTLYLQMNSLRAEDTAVYYCARERTYYDILTGYRHYYGMDVWGQGTTVTVSS VL: SYELTQPPSVSVAPGQTARITCGGNNIGSKSVHWYQQKPGQAPVLVVYDDSDRPSGIPERFSGSNSGNTATLTISRVEAGDEADYYCQVWDSSSDHWVFGGGTKLTVL")
"no binding"
>>> recorded_value("FJ 1C (antibody, V domains shown) VH: QVQLQESGPGLVKPSETLSLTCTVSGYSISSGYYWGWIRQPPGKGLEWIGSIYHSGSTYYNPSLKSRVTISVDTSKNQFSLKLSSVTAADTAVYYCARDKALLWFGELFTNLFDYWGQGTLVTVSS VL: QSALTQPASVSGSPGQSITISCTGTSSDVGGYNYVSWYQQHPGKAPKLMIYEVSNRPSGVSNRFSGSKSGNTASLTISGLQAEDEANYYCSSYTSSSTLVFGGGTKLTVL")
"no binding"
>>> recorded_value("EZ 7A (antibody, V domains shown) VH: EVQLVESGAEVKKPGESLKISCKGSGYSFTSYWIGWVRQMPGKGLEWMGIIYPGDSDTRYSPSFQGQVTISADKSISTAYLQWSSLKASDTAMYYCARGWVYRGFPYYGMDVWGQGTMVTVSS VL: QSALTQPRSVSGSPGQSVTISCTGTSSDVGGYNYVSWYQQHPGKAPKLMIYDVSKRPSGVPDRFSGSKSGNTASLTISGLQAEDEADYYCCSYAGSYTLVFGGGTKLTVL")
"binds"
